All values here come from patent EP3033337B1.

# study-system: human N-type Ca channel (Homo sapiens, UniProt Q00975)
# Sequence (Q00975 whole entry): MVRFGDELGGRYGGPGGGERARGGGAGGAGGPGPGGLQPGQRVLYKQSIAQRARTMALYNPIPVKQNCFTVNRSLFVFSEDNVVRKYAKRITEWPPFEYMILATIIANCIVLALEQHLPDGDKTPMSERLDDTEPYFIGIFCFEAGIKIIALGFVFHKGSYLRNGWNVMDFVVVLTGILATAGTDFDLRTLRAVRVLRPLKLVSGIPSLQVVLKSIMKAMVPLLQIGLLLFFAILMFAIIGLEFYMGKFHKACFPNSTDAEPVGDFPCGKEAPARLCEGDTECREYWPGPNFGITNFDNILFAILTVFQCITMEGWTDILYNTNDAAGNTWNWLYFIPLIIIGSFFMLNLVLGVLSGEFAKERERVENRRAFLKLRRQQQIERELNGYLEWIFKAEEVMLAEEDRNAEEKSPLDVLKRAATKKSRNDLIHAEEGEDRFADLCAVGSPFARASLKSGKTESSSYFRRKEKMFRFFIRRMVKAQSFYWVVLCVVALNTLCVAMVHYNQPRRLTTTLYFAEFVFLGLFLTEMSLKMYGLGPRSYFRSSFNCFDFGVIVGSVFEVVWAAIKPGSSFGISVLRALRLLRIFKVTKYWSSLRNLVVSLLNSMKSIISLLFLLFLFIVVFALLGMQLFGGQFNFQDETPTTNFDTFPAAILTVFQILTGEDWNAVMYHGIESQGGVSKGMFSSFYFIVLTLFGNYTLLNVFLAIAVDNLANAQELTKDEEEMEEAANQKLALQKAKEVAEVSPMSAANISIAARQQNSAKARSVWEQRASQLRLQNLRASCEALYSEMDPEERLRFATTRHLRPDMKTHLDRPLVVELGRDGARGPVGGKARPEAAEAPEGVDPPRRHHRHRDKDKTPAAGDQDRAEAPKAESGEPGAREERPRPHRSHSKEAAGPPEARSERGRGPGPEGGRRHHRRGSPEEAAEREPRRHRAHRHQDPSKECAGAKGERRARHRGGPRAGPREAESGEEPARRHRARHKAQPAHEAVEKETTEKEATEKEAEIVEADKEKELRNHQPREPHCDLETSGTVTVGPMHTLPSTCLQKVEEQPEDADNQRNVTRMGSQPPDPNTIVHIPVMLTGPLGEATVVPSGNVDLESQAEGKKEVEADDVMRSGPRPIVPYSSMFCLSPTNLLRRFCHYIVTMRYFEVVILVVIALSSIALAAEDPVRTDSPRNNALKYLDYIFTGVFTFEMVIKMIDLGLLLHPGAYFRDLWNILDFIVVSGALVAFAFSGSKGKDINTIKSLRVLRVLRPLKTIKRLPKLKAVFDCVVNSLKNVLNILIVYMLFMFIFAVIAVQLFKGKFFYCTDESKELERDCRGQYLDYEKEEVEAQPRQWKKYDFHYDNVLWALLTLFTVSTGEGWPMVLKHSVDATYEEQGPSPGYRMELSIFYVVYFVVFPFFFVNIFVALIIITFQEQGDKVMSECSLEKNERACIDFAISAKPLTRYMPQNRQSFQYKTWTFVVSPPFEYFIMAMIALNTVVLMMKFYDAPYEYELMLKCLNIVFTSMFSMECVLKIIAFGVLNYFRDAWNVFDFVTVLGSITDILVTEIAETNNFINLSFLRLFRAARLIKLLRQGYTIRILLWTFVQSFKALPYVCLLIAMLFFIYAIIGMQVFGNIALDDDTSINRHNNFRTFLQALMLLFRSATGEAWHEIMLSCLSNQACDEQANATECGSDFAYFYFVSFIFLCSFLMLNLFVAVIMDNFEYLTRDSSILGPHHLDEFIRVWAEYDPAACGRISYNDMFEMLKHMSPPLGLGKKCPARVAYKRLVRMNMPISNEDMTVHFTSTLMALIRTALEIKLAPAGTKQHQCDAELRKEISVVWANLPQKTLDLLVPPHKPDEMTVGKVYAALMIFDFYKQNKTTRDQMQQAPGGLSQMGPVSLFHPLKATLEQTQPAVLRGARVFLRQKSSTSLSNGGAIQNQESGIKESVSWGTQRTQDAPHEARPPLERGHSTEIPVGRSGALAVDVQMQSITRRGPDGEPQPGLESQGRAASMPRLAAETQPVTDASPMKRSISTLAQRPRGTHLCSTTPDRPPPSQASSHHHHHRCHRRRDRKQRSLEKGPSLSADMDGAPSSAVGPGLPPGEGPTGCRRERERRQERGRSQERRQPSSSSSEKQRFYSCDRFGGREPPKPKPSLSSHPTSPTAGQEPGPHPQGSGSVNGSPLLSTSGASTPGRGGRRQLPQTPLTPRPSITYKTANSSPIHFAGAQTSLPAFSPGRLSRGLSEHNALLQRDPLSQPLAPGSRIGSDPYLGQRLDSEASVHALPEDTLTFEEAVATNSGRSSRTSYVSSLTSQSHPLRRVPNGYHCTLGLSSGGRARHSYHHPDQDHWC
# Sequence (P54284 whole entry partner): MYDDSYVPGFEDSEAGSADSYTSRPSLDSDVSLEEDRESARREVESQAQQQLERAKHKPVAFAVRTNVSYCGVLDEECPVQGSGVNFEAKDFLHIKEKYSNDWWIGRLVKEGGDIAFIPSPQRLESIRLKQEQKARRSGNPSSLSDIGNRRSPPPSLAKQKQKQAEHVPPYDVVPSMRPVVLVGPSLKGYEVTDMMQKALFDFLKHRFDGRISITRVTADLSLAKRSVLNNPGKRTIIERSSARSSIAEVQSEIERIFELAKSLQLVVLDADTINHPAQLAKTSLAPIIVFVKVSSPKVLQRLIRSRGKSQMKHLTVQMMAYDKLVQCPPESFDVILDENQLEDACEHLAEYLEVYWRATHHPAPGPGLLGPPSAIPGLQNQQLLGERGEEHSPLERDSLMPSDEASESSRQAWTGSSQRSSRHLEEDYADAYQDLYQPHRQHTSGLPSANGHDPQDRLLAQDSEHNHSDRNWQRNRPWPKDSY
# Sequence (P54289 25-956 partner limits assumed): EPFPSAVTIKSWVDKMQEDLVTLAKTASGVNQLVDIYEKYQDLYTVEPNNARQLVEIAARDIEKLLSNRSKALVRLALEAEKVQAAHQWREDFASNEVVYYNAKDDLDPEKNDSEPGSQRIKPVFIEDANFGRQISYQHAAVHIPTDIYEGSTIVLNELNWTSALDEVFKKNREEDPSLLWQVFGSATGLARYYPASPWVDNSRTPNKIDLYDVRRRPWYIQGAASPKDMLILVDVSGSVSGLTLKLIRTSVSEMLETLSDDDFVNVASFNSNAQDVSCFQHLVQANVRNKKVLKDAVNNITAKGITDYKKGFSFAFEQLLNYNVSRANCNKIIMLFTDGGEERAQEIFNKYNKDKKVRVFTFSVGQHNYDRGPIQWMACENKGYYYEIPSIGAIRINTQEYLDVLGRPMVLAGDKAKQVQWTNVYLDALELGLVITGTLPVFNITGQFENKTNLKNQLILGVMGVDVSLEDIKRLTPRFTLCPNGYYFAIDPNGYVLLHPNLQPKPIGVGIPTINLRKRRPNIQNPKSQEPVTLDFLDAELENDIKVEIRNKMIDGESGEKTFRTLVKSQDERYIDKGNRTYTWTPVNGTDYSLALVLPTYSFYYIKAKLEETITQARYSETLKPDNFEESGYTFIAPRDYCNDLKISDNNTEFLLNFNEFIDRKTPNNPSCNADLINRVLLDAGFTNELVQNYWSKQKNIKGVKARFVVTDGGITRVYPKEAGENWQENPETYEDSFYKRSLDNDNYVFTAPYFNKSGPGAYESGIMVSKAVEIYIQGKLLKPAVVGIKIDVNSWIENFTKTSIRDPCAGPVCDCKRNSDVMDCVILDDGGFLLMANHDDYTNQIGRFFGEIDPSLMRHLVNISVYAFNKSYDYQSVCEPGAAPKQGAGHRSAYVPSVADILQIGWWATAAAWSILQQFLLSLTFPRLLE
# Sequence (P54289 957-1103 partner limits assumed): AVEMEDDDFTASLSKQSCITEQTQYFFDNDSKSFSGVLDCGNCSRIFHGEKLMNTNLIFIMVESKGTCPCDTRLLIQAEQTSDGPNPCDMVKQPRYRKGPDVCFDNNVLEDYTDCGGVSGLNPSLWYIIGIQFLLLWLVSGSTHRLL
# procedure-text: Calcium influx assay (FDSS), KCl depolarization, Fluo8 dye
# Type: cell-based
# Parameters: host or cells: HEK 293
# condition: HEK 293 cells expressing human N-type Ca channel; 100 mM KCl; read-out: N Type IC50 Data FDSS
quantity: IC50 (nM)

COc1ccccc1-c1nc(C2CC(C)(C)OC(C)(C)C2)cn1-c1ccc(C#N)c(F)c1: 201

P. COc1ncccc1-c1nc(C2(O)CC(C)(C)OC(C)(C)C2)cn1-c1ccc(F)c(F)c1
Q. COc1ncccc1-c1nc(C2CC(C)(C)OC(C)(C)C2)cn1-c1ccc(Cl)c(F)c1
Query: Could you tell me which of these two has the smaller IC50 figure? First: P Second: Q Provide the label of your selected option as the answer.
Reply: Q
